Target: human DLL4 (human) (UniProt Q9NR61)
Test: Biacore (SPR), huDLL4; reference is the parental DVD
READOUT_LABEL: KD ratio (parental DVD/AM DVD) (fold)
Give bare numbers, in fold.

Example entries begin here.
BINDER | KD ratio (parental DVD/AM DVD) (fold)
h1A11.1-F7-S2-SS-Anti-VEGF DVD-Ig (bispecific antibody, part only; not given: anti-VEGF domains, h1A11.1 VL, constant regions, part only) heavy, part: EVQLVESGGGLVQPGGSLRLSCAASGFTFRHFPMTWVRQAPGKGLEWVASISSSDGTINYRDSVKGRFTISRDNAKNSLYLQMNSLRAEDTAVYYCARGYYNSPFAYWGQGTLVTVSSASTKGP light, part: TVAAP | 35.9
h1A11.1-H3-S2-SS-Anti-VEGF DVD-Ig (bispecific antibody, part only; not given: anti-VEGF domains, h1A11.1 VL, constant regions, part only) heavy, part: EVQLVESGGGLVQPGGSLRLSCAASGFTFRNFPMAWVRQAPGKGLEWVASISSSDGTTNYRDSVKGRFTISRDNAKSSLYLQMNSLRAEDTAVYYCARGYYNSPFAYWGQGTLVTVSSASTKGP light, part: TVAAP | 19.1
h1A11.1-B9-S2-SS-Anti-VEGF DVD-Ig (bispecific antibody, part only; not given: anti-VEGF domains, h1A11.1 VL, constant regions, part only) heavy, part: EVQLVESGGGLVQPGGSLRLSCAASGFTFSHFPMAWVRQAPGKGLEWVASISSSDSTTNYRDSVKGRFTISRDNAKNSLYLQMNSLRAEDTAVYYCARGYYNSPFAYWGQGTLVTVSSASTKGP light, part: TVAAP | 21.6

What measured KD ratio (parental DVD/AM DVD) goes with h1A11.1-G7-S2-SS-Anti-VEGF DVD-Ig (bispecific antibody, part only; not given: anti-VEGF domains, h1A11.1 VL, constant regions, part only) heavy, part: EVQLVESGGGLVQPGGSLRLSCAASGFTFNHFPMAWVRQAPGKGLEWVATISSSDWTPYYRDSVKGRFTISRDNAKNSLYLQMNSLRAEDTAVYYCARGYYNSPFAYWGQGTLVTVSSASTKGP light, part: TVAAP ?
15.2
